Species: Rattus norvegicus
method-summary: In vitro effect on intracellular ca++ elevation was determined in comparison to the ATP at 10 uM on rat cardiomyocytes; Ca++ elevation
Format: functional
quantity-measured: Ca2+ elevation (nM)

> print(dat)
                             chemical.string  measured.number
 1  Cn1cnc2c1c(=O)n(CCOP(=O)(O)O)c(=O)n2C.N.N               61
 2  Cn1cnc2c1c(=O)n(CCOP(=O)(O)OP(=O)(O)OP(=O)(O)O)c(=O)n2C.N.N.N.N               54
 3  Cn1c(=O)c2c(nc(Cl)n2CCOP(=O)(O)O)n(C)c1=O               49
 4  Cn1c(=O)c2c(nc(Cl)n2CCOP(=O)(O)OP(=O)(O)OP(=O)(O)O)n(C)c1=O               29
 5  Cn1c(Br)nc2c1c(=O)n(CCOP(=O)(O)OP(=O)(O)OP(=O)(O)O)c(=O)n2C               94
 6     Cn1c(=O)c2c(ncn2CCOP(=O)(O)O)n(C)c1=O               80
 7  Cn1c(=O)c2c(nc(Br)n2CCOP(=O)(O)O)n(C)c1=O               54
 8  Cn1cnc2c1c(=O)n(CCCOP(=O)(O)OP(=O)(O)OP(=O)(O)O)c(=O)n2C.N.N.N.N               60
 9  Cn1c(=O)c2c(nc(Br)n2CCOP(=O)(O)OP(=O)(O)OP(=O)(O)O)n(C)c1=O               37
10  Cn1c(Br)nc2c1c(=O)n(CCOP(=O)(O)O)c(=O)n2C               80

Hey, just so you know, these numbers are from ChEMBL document CHEMBL1132304.
